Experiment: Pharmacokinetics of single oral liquid doses in human subjects
Type: in vivo
Conditions: plasma, single oral liquid dose, read-out: terminal half-life (converted)
RECORDED_ENDPOINT: half-life

Looking up CNc1cc2[nH]c(=O)n(-c3ccc(NC(=O)[N-]S(=O)(=O)c4ccc(Cl)s4)cc3)c(=O)c2cc1F.[K+] [PRT128] , I found its half-life recorded as ~12 h

###

Target: P2Y12 receptor (Homo sapiens, UniProt Q9H244)
Construct: endogenous in cells
Sequence (Q9H244 whole entry): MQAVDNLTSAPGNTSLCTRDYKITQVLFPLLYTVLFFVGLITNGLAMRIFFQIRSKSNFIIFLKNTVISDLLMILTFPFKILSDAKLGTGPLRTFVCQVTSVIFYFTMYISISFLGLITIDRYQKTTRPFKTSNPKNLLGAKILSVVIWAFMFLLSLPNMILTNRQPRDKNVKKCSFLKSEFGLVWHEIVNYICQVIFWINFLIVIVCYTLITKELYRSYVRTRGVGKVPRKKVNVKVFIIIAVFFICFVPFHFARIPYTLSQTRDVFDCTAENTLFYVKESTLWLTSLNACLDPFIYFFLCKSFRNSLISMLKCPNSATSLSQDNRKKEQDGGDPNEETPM
Experiment: platelet ADP receptor binding assay (ARB): inhibition of [3H]2-MeS-ADP binding to platelets
Settings: whole platelets
RECORDED_ENDPOINT: IC50

Item CNc1cc2[nH]c(=O)n(-c3ccc(NC(=O)NS(=O)(=O)c4ccc(Cl)s4)cc3)c(=O)c2cc1F [Example 2] was tested on P2Y12 receptor (Homo sapiens, UniProt Q9H244); the reported IC50 is < 50 nM
